- TESTED_TARGET: T1, recombinant human DLL4 (C-terminally His-tagged extracellular domain, R&D Systems) (human, UniProt Q9NR61 25-522, biotinylated in the competition ELISA)
- T1 construct: also called rhDLL4; hDLL4
- T1 sequence (Q9NR61 25-522): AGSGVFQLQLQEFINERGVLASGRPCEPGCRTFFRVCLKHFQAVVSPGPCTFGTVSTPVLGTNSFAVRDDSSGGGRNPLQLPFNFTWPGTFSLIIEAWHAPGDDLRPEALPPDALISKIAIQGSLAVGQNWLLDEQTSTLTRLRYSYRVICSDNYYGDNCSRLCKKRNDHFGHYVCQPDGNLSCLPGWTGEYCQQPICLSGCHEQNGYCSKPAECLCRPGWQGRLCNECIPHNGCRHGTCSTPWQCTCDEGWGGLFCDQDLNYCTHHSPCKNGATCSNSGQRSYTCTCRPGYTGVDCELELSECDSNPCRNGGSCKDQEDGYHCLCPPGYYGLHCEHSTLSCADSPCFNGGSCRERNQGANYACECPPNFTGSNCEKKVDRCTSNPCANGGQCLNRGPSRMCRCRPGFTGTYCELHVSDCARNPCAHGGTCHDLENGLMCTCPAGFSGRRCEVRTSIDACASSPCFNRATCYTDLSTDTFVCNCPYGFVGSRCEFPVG
- ASSAY_PROCEDURE: SPR (Biacore), recombinant human DLL4
READOUT: pKd
// field semantics: pKd = negative decimal log of concentration (mol/L)

Could you share which pKd value was measured for DLLBII022 (VHH, not shown: small tags and cut ends) VHH: EVQLVESGGGLVQPGGSLRLSCAASGFTFGSYDMSWVRQAPGKGPEWVSSINSGGGSTYYADYVKGRFTISRDNAKNTLYLQMNSLRPEDTAVYYCAADRYIWARQGEYWGAYEYDYWGQGTLVTVSS ?
7.34
